Subject Of Test: α4β7 integrin (Homo sapiens (Human), UniProt P13612+P26010)
Sequence (P13612 34-1032): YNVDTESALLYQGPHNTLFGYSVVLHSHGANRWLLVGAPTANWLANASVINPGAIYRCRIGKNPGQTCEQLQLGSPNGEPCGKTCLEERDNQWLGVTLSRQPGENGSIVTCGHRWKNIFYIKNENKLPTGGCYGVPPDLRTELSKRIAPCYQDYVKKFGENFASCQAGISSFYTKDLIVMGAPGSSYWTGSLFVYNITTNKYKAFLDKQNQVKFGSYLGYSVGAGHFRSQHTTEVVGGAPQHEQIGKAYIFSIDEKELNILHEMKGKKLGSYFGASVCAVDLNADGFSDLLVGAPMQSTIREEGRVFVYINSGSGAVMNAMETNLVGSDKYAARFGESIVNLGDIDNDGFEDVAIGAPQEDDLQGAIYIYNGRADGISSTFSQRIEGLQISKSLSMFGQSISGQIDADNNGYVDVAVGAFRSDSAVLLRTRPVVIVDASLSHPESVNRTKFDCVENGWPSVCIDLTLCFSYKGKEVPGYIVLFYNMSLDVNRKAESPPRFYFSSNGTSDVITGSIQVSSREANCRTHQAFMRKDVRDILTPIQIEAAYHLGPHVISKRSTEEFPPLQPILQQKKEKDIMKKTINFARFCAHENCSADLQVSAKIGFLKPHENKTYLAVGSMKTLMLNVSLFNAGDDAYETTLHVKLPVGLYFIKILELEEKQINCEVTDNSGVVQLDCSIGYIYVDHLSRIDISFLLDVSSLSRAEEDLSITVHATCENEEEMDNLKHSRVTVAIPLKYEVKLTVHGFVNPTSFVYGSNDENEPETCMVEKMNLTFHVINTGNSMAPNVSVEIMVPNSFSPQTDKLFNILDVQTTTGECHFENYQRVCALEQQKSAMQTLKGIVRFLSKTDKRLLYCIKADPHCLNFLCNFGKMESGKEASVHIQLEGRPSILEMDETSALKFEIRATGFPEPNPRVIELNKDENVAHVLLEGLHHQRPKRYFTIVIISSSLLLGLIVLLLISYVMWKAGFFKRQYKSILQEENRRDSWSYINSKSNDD
Sequence (P26010 20-798): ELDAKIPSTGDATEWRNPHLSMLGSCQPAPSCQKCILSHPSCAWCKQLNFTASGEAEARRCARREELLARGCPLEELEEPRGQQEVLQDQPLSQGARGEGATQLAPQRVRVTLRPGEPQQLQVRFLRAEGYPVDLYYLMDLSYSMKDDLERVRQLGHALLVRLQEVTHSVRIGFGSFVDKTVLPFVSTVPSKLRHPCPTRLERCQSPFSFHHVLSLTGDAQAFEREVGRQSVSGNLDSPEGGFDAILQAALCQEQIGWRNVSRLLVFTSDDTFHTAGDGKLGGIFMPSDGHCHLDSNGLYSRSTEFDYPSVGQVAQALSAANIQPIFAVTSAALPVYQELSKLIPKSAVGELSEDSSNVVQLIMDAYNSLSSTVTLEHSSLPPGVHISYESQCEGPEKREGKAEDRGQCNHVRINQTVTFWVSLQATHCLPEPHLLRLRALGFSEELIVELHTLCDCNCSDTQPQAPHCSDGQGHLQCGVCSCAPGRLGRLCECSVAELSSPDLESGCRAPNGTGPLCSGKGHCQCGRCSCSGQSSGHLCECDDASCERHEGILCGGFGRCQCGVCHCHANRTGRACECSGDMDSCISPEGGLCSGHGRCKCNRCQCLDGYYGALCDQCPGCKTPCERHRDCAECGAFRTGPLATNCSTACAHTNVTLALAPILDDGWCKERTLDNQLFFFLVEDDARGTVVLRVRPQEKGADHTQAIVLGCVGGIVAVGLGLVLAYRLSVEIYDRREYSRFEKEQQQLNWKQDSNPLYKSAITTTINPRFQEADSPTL
Assay Explanation: Integrin Adhesion Assay: Protocol 4 (MAdCAM-coated plate, RPMI-8866 cells with stable LOF mutation of the ITGB1 gene)
Format: cell-based
Conditions: RPMI-8866 cells with stable LOF mutation of the ITGB1 gene; read-out: Mean IC50 α4β7 KO^a
pIC50: −log10 of the molar value.
Measured Quantity: pIC50

{"Compound": "O=C(N[C@@H](Cc1cccc2c(-c3ncc(CN4CCCCC4)c4ccccc34)cccc12)C(=O)O)c1c(F)cccc1F", "pIC50": "7.00 to 8.00"}
{"Compound": "COc1ccc(CN2CC(OC)C2)c(OC)c1-c1cccc2c(C[C@H](NC(=O)c3c(C)cccc3F)C(=O)O)cccc12", "pIC50": "> 8.00"}

Prompt line: Could you please provide reported pIC50 for COc1ccc(CN2CCCCC2)cc1-c1cccc2c(C[C@H](NC(=O)c3c(C)cccc3F)C(=O)O)cccc12 ? Thanks!
Response line: 7.00 to 8.00

Prompt line: Could you please provide reported pIC50 for CC[C@@](Cc1cccs1)(C(=O)N[C@@H](Cc1cccc2c(-c3c(C(F)(F)F)ccn(C)c3=O)nccc12)C(=O)O)c1ccccc1 ? Thanks!
Response line: 6.00 to 7.00

Prompt line: Could you please provide reported pIC50 for Cn1c(=O)c(-c2cccc3c(C[C@H](NC(=O)C4(C(F)(F)F)CCN(C(C(F)(F)F)C(F)(F)F)CC4)C(=O)O)cccc23)c(C(F)(F)F)c2ccccc21 ? Thanks!
Response line: < 6.00

Prompt line: Could you please provide reported pIC50 for COC(=O)[C@H](Cc1cccc2c(-c3c(OC)ccc(CN4C(C)CCC4C)c3OC)cccc12)NC(=O)c1c(C)cccc1F (some centres unmarked) ? Thanks!
Response line: > 8.00

Prompt line: Could you please provide reported pIC50 for COc1ccc(CN(C)C)c(OC)c1-c1cccc2c(C[C@H](NC(=O)c3c(F)cccc3C3CC3)C(=O)O)cccc12 ? Thanks!
Response line: > 8.00

Prompt line: Could you please provide reported pIC50 for Cn1c(C(=O)N[C@@H](Cc2cccc3c(-c4c(C(F)(F)F)c5ccccc5n(C)c4=O)cccc23)C(=O)O)cnc1C1CCOCC1 ? Thanks!
Response line: 6.00 to 7.00

---

Subject Of Test: α4β1 integrin (Homo sapiens (Human), UniProt P05556+P13612)
Sequence (P13612 34-1032): as the sequence (P13612 34-1032) above
Sequence (P05556 21-798): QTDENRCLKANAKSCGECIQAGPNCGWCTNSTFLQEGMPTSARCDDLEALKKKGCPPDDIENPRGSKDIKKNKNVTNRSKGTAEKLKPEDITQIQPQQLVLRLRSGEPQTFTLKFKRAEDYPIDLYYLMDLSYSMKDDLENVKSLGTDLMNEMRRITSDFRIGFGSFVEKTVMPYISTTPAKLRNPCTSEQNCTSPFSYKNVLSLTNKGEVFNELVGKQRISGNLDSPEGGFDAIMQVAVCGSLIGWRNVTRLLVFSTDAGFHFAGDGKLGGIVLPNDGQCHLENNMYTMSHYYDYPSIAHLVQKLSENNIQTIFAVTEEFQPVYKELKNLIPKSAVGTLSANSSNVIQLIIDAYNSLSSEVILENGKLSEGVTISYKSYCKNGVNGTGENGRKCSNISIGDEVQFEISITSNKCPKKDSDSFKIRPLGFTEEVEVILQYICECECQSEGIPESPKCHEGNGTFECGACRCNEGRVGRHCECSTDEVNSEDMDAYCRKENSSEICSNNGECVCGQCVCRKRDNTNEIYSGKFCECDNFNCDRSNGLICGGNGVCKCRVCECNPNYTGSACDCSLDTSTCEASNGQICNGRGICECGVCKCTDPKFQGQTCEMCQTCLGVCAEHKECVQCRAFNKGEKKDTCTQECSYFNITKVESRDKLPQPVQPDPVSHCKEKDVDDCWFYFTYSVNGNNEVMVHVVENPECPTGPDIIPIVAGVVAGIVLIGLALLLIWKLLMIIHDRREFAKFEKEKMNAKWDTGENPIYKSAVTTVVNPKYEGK
Assay Explanation: Integrin Adhesion Assay: Protocol 5 (VCAM-coated plate, RPMI-8866 cells with stable LOF mutation of the ITGB7 gene)
Type: cell-based
Conditions: RPMI-8866 cells with stable LOF mutation of the ITGB7 gene; read-out: Mean IC50 α4β1 KO^b
pIC50: −log10 of the molar value.
Measured Quantity: pIC50

{"Entry Smiles": "COc1ccc(CN2CCC[C@H](F)C2)c(OC)c1-c1cccc2c(C[C@H](NC(=O)c3c(C)cccc3F)C(=O)O)cccc12", "pIC50": "6.00 to 7.00"}
{"Entry Smiles": "COc1ccc(CN(C)C)c(OC)c1-c1cccc2c(C[C@H](NC(=O)C3(C(F)(F)F)CCN(CC(F)(F)F)CC3)C(=O)O)cccc12", "pIC50": "6.00 to 7.00"}
{"Entry Smiles": "COc1ccc(CN(C)C)c(C(F)(F)F)c1-c1cccc2c(C[C@H](NC(=O)C3(C(F)(F)F)CCN(CC(F)(F)F)CC3)C(=O)O)cccc12", "pIC50": "6.00 to 7.00"}
{"Entry Smiles": "COc1ccc(CN2CCC(F)(F)CC2)c(OC)c1-c1cccc2c(C[C@H](NC(=O)c3c(F)cncc3Cl)C(=O)O)cccc12", "pIC50": "6.00 to 7.00"}
{"Entry Smiles": "COc1ccc(CN2CCCCC2)c(OC)c1-c1cccc2c(C[C@H](NC(=O)c3c(F)cccc3C(C)C)C(=O)O)cccc12", "pIC50": "< 6.00"}

# ---- query molecule ----
Prompt line: Could you please provide reported pIC50 for COc1ccc2ccncc2c1-c1cccc2c(C[C@H](NC(=O)C3(C(F)(F)F)CCN(CC(F)(F)F)CC3)C(=O)O)cccc12 ? Thanks!
Response line: 6.00 to 7.00
